Hello, the source for this data is ChEMBL document CHEMBL1949593, in case you need it.

procedure-summary: Resistance index, ratio of IC50 for ring stage chloroquine-resistant Plasmodium falciparum INDO to IC50 for ring stage chloroquine-sensitive Plasmodium falciparum 3D7
Type: functional
Flag rule - Ratio IC50 less than 0.6 flags TRUE; the remaining entries get FALSE.

INSERT INTO measurements (compound_structure_string, assigned_label) VALUES
  ('COc1cc(OC)c(OC)cc1/C=C/C(=O)c1ccc(/C=C/c2cc(OC)c(O)c(OC)c2)cc1', 'FALSE'),
  ('COc1cc(/C=C/c2ccc(C(=O)/C=C/c3ccc(OC)c(OC)c3OC)cc2)cc(OC)c1O', 'FALSE'),
  ('COc1cc(OC)c(OC)cc1/C=C/C(=O)c1ccc(/C=C/c2ccc(O)c(O)c2)cc1', 'FALSE'),
  ('COc1cc(OC)c(OC)cc1/C=C/C(=O)c1ccc(/C=C/c2cc(OC)c(OC)c(OC)c2)cc1', 'TRUE'),
  ('COc1cc(/C=C/c2ccc(C(=O)/C=C/c3cc(OC)c(OC)cc3OC)cc2)ccc1O', 'TRUE'),
  ('COc1cc(OC)c(OC)cc1/C=C/C(=O)c1ccc(/C=C/c2cc(OC)c(OC(C)=O)c(OC)c2)cc1', 'FALSE');
